Items are presented alongside their recorded IC50.
Test system: MCF7
Assay: cells
Conditions: Homo sapiens
Description: Antiproliferative activity against human MCF7 cells

// worked examples, IC50 included
Record `NC(=O)c1c(Oc2ccc(F)c(NS(N)(=O)=O)c2)cc(F)c(F)c1Nc1ccc(I)cc1F` : what is its IC50 with MCF7?
> 10 µM

Enter reported IC50 observed with MCF7 for `NC(=O)c1c(Oc2cccc(CNS(N)(=O)=O)c2)cc(F)c(F)c1Nc1ccc(I)cc1F`
> 10 µM

Here's the next entry for you.
Item: Cn1cnc2c(F)c(Nc3ccc(Br)cc3Cl)c(C(=O)NOCCO)cc21 [SELUMETINIB] Test system: MCF7 Read-out: IC50 Value: ?
> 10 µM

----------
Assay: Half life in rat at 0.5 mg/kg, iv or 5 mg/kg, po
Type: ADME, organism-based
Conditions: in vivo
Property name: half-life (h)
Express the result in h but write the number alone.

Given Cn1cnc2c(F)c(Nc3ccc(Br)cc3Cl)c(C(=O)NOCCO)cc21 [SELUMETINIB] , state its recorded half-life.
4.1

----------
Assay: cells
Conditions: Homo sapiens, HCT-116
Description: Antiproliferative activity against human HCT116 cells harboring K-Ras G13D mutation
Property name: IC50 (nM)
API: value field is a number in nM; no unit string.

Query: IC50; subject: `NC(=O)c1c(Oc2ccc(F)c(NS(N)(=O)=O)c2F)cc(F)c(F)c1Nc1ccc(I)cc1F`
2950

Field request: IC50 | item: `NC(=O)c1c(Nc2ccc(I)cc2F)cc(F)cc1Oc1cccc(NS(N)(=O)=O)c1`
180

I'd like to know its IC50. The compound in question is `Cc1c(NS(N)(=O)=O)cccc1Oc1cc(F)cc(Nc2ccc(I)cc2F)c1C(N)=O`
9

What measured IC50 goes with `NC(=O)c1c(Nc2ccc(I)cc2F)cc(F)cc1Oc1cccc(NS(N)(=O)=O)c1Br` ?
152

// query IC50 value for entry `CCS(=O)(=O)Nc1cccc(Oc2c(F)c(F)cc(Nc3ccc(I)cc3F)c2C(N)=O)c1`
81

For the next question, use this compound.
Requested read-out: IC50. Entry: `NC(=O)c1c(Oc2cccc(CNS(N)(=O)=O)c2)cc(F)c(F)c1Nc1ccc(I)cc1F`
124

----------
IC50 overview
System: A-375
Assay: Antiproliferative activity against human A375 cells harboring BRAF(V600E) mutation after 72 hrs by cell titer glow cell titer glow FCTGI assay
Details: A-375, 72 h
Number in nM, nothing else.

// below: answered molecules
# get_value(readout= IC50, system= A-375) for `CCOc1ccc(Oc2cc(F)cc(Nc3ccc(I)cc3F)c2C(N)=O)cc1NS(N)(=O)=O`
977

Recall the recorded IC50 for `CN(C)S(=O)(=O)Nc1cccc(Oc2cc(F)c(F)c(Nc3ccc(I)cc3F)c2C(N)=O)c1` with A-375 and state it.
6

Which measured IC50 belongs to `Cc1cccc(Oc2cc(F)cc(Nc3ccc(I)cc3F)c2C(N)=O)c1NS(N)(=O)=O` , tested on A-375?
218

Find the measured IC50: item `NC(=O)c1c(Nc2ccc(I)cc2F)cc(F)cc1Oc1ccccc1NS(N)(=O)=O` , target or system A-375.
65

// map `COc1cc(NS(N)(=O)=O)cc(Oc2cc(F)cc(Nc3ccc(I)cc3F)c2C(N)=O)c1` to recorded IC50 (system: A-375)
922

---
Form entry - test system: A-375; read-out: IC50; molecule: `NC(=O)c1c(Oc2cccc(NS(N)(=O)=O)c2)cc(F)c(F)c1Nc1ccc(I)cc1F`
2

Field: IC50 (A-375). Entry: `Cc1ccc(Oc2cc(F)cc(Nc3ccc(I)cc3F)c2C(N)=O)cc1NS(N)(=O)=O`
180

What is its IC50 for A-375? Entry: CC(NS(N)(=O)=O)c1cccc(Oc2cc(F)cc(Nc3ccc(I)cc3F)c2C(N)=O)c1 (centres undefined)
24

----------
Assay: Ratio of AUC in brain to plasma in mouse at 5 mg/kg, iv measured for 0 to 3 hrs
Assay type: ADME, organism-based
Conditions: brain and plasma, read-out: BPR
Property name: Kp

Before answering, review these 2 worked examples.
Record request: Kp value, item `NC(=O)c1c(Oc2cccc(CNS(N)(=O)=O)c2)cc(F)c(F)c1Nc1ccc(I)cc1F`
< 0.02

Query: Kp; subject: `NC(=O)c1c(Oc2ccc(F)c(NS(N)(=O)=O)c2)cc(F)c(F)c1Nc1ccc(I)cc1F`
< 0.02

Next molecule, Kp to be filled in.
Given `NC(=O)c1c(Nc2ccc(I)cc2F)cc(F)cc1Oc1cccc(NS(N)(=O)=O)c1` , state its recorded Kp.
< 0.02

----------
Test: Oral bioavailability in rat 1 mg/kg
Format: ADME, organism-based
Details: in vivo
Listed below: bioavailability values for each entry.
Field format: number, assumed %, no unit text.

What measured bioavailability goes with `NC(=O)c1c(Oc2ccc(F)c(NS(N)(=O)=O)c2)cc(F)c(F)c1Nc1ccc(I)cc1F` ?
84

New cases:
Given the molecule `NC(=O)c1c(Oc2cccc(CNS(N)(=O)=O)c2)cc(F)c(F)c1Nc1ccc(I)cc1F` , what is its reported bioavailability?
78

----------
System: A-375
Assay: Antiproliferative activity against human A375 cells harboring BRAF(V600E) mutation after 72 hrs by cell titer glow cell titer glow FCTGI assay
Settings: A-375, 72 h
In this section, each of the molecules is paired with its reported IC50.
# number only, unit nM dropped from output

// worked examples, IC50 included
// fetch A-375 IC50 for `NC(=O)c1c(Nc2ccc(I)cc2F)cc(F)cc1Oc1cccc(NS(N)(=O)=O)c1Cl`
6

Hi! What's the reported IC50 for `Cc1ccc(NS(N)(=O)=O)cc1Oc1cc(F)cc(Nc2ccc(I)cc2F)c1C(N)=O` on A-375?
570

Can you look up IC50 on A-375 for `COc1ccc(Oc2cc(F)cc(Nc3ccc(I)cc3F)c2C(N)=O)cc1NS(N)(=O)=O` ?
731

Pending molecule:
Entry `NC(=O)c1c(Oc2cccc(CS(N)(=O)=O)c2)cc(F)c(F)c1Nc1ccc(I)cc1F` , system A-375: what IC50 was measured?
11

----------
The compounds listed here are annotated with their IC50.
Test: cells
Settings: Homo sapiens, HCT-116
Dear colleague, please return just the value in nM, with no unit written.

Entry under review: `NC(=O)c1c(Oc2cccc(NS(N)(=O)=O)c2)cc(F)c(F)c1Nc1ccc(I)cc1F` . Reported IC50?
50

---
Request the reported IC50 associated with `Cc1c(NS(N)(=O)=O)cccc1Oc1cc(F)c(F)c(Nc2ccc(I)cc2F)c1C(N)=O`
2

Consider the compound `CCNS(=O)(=O)Nc1cccc(Oc2cc(F)cc(Nc3ccc(I)cc3F)c2C(N)=O)c1` and give its measured IC50.
287

----------
Recorded IC50 values for a group of molecules are listed next.
System: A-375
Assay: Antiproliferative activity against human A375 cells harboring BRAF(V600E) mutation after 72 hrs by cell titer glow cell titer glow FCTGI assay
Details: A-375, 72 h
// note: answer is a bare numeric in µM

Record excerpt, results attached:
What reported IC50 corresponds to `NC(=O)c1c(Nc2ccc(I)cc2F)cc(F)cc1Oc1cccc(NS(N)(=O)=O)c1Br` on A-375?
0.008

Report IC50 for `NC(=O)c1c(Nc2ccc(I)cc2F)cc(F)cc1Oc1cccc(CNS(N)(=O)=O)c1` tested on A-375.
0.035

API: value(readout=IC50, system=A-375) for record `NC(=O)c1c(Nc2ccc(I)cc2F)cc(F)cc1Oc1ccc(F)c(NS(N)(=O)=O)c1`
0.09

Lab note: need IC50 with A-375 for entry `Cc1c(NS(N)(=O)=O)cccc1Oc1cc(F)c(F)c(Nc2ccc(I)cc2F)c1C(N)=O` , please look it up.
0.0002

Find the measured IC50: item `NC(=O)c1c(Nc2ccc(I)cc2F)cc(F)cc1Oc1ccc2c(c1)N(S(N)(=O)=O)CCO2` , target or system A-375.
0.339

Further cases:
Enter reported IC50 observed with A-375 for `NC(=O)c1c(Nc2ccc(I)cc2F)cc(F)cc1Oc1ccc(F)c(NS(N)(=O)=O)c1F`
0.374

# returns recorded IC50 (system: A-375) for `NC(=O)c1c(Oc2cccc(CNS(N)(=O)=O)c2)cc(F)c(F)c1Nc1ccc(I)cc1F`
0.004

Recall the recorded IC50 for `CCS(=O)(=O)Nc1cccc(Oc2c(F)c(F)cc(Nc3ccc(I)cc3F)c2C(N)=O)c1` with A-375 and state it.
0.004

I'm curious: which IC50 was measured for `NC(=O)c1c(Oc2ccc(F)c(NS(N)(=O)=O)c2)cc(F)c(F)c1Nc1ccc(I)cc1F` tested on A-375?
0.013

Please state recorded IC50 (tested on A-375) of `NC(=O)c1c(Nc2ccc(I)cc2F)cc(F)cc1Oc1ccc(Cl)c(NS(N)(=O)=O)c1`
0.483
